assay: Plasma pharmacokinetics after single intravenous dose; format: in vivo, Beagle dogs; conditions: both sexes, Beagle, dog, single intravenous dose 1 mg kg^−1 in PBS, mean ± SD, read-out: elimination half-life (converted)

| smiles_record | measure_unit | half-life |
| --- | --- | --- |
| NCCCC[C@H](NC(=O)C1CCCC1)C(=O)COc1c(F)ccc(F)c1F | h | 3.5 |

----------
assay: Plasma pharmacokinetics after single intravenous dose; assay type: in vivo, Beagle dogs; conditions: both sexes, Beagle, dog, single intravenous dose 1 mg kg^−1 in PBS, mean ± SD, read-out: systemic clearance (CLS) (converted)

| smiles_record | measure_unit | clearance |
| --- | --- | --- |
| NCCCC[C@H](NC(=O)C1CCCC1)C(=O)COc1c(F)ccc(F)c1F | mL/min/kg | 35 |
